system: T1, monkey GFRα3 expressed with a C-terminal myc-myc-hexahistidine tag (monkey (Mf), UniProt O60609 32-374 (human entry), limits assumed)
T1 construct: also called MfGFRα3-mmh; MfGFRα3-mmH
T1 chain: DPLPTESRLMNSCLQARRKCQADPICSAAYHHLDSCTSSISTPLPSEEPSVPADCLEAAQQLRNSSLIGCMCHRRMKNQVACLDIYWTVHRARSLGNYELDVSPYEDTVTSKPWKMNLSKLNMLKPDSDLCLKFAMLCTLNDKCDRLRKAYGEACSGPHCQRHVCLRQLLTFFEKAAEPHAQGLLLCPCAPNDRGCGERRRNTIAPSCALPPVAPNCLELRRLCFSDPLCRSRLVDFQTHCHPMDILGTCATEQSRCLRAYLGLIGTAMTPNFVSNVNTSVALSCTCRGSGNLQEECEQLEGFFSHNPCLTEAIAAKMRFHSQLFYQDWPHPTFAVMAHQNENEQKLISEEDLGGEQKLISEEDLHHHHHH
assay_name: SPR, Ab captured, 37C
measured_metric: kon (M⁻¹ s⁻¹)
// note: answer is a bare numeric in M⁻¹ s⁻¹

INPUT: For the binder shown here, H4H2357S (antibody, human IgG4, V domains shown, human IgG4 Fc (H4H)) VH: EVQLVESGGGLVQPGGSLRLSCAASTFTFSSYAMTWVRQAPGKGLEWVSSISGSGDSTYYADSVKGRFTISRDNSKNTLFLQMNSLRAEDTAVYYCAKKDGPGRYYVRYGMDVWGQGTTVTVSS VL: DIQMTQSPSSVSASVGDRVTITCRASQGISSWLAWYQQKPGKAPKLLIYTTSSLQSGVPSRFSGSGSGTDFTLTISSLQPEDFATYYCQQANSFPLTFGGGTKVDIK , give the reported kon.
OUTPUT: 172000

INPUT: What would you report for H4H2342P (antibody, human IgG4, V domains shown, human IgG4 Fc (H4H)) VH: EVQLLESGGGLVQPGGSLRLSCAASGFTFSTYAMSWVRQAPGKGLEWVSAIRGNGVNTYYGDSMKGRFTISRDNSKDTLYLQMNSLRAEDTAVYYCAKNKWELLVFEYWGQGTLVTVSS VL: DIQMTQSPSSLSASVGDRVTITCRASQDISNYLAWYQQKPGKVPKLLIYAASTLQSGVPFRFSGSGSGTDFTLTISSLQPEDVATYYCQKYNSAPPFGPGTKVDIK ?
OUTPUT: 150000

INPUT: What would you report for H4H2346S (antibody, human IgG4, V domains shown, human IgG4 Fc (H4H)) VH: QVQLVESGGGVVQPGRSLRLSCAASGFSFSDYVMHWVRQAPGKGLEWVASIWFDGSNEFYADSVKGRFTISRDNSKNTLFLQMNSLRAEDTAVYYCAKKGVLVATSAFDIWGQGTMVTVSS VL: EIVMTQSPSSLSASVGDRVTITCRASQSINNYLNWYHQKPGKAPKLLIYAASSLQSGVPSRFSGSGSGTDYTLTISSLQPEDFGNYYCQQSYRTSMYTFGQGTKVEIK ?
OUTPUT: 153000
